Where these numbers come from: patent US20100166765A1

Listed here: items and their measured melting point.
OUTCOME_MEASURE: melting point

{"SMILES_CODE": "C#CCOc1ccc2nc(C(=O)c3ccc(OCC)cc3)nc(-c3ccc(C(C)C)cc3)c2c1", "DATA_VALUE": "117 to 119 °C"}
{"SMILES_CODE": "C#CCOc1ccc2nc(C(=O)c3ccc(SC)cc3)nc(-c3ccc(C(C)C)cc3)c2c1", "DATA_VALUE": "161 to 164 °C"}
{"SMILES_CODE": "C#CCOc1ccc2nc(C(=O)c3ccoc3)nc(-c3ccc(C(C)(C)C)cc3)c2c1", "DATA_VALUE": "170 °C"}
{"SMILES_CODE": "C#CCOc1ccc2nc(C(=O)c3ccc(N(C)C)cc3)nc(-c3ccc(C4CC4)cc3)c2c1", "DATA_VALUE": "169 to 172 °C"}

---

{"COMPOUND": "C#CCOc1ccc2nc(C(=O)c3cc4ccccc4s3)nc(-c3ccc(C(C)C)cc3)c2c1", "melting point": "167 to 169 °C"}
{"COMPOUND": "C#CCOc1ccc2nc(C(=O)c3cccs3)nc(-c3ccc(C(C)C)cc3)c2c1", "melting point": "113 to 117 °C"}
{"COMPOUND": "C#CCOc1ccc2nc(C(=O)c3ccc(C(C)(C)C)cc3)nc(-c3ccc(C(C)C)cc3)c2c1", "melting point": "166 to 168 °C"}
{"COMPOUND": "C#CCOc1ccc2nc(C(=O)c3cccc(Br)c3)nc(-c3ccc(C(C)C)cc3)c2c1", "melting point": "132 °C"}
{"COMPOUND": "C#CCOc1ccc2nc(C(=O)c3ccc(CCC)cc3)nc(-c3ccc(C(C)C)cc3)c2c1 [Example 16a]", "melting point": "140 to 142 °C"}
